# tested.target: cysteines in MDA-MB-231 and Ramos cells (Homo sapiens, UniProt P51649)
# Sequence (P51649 48-535): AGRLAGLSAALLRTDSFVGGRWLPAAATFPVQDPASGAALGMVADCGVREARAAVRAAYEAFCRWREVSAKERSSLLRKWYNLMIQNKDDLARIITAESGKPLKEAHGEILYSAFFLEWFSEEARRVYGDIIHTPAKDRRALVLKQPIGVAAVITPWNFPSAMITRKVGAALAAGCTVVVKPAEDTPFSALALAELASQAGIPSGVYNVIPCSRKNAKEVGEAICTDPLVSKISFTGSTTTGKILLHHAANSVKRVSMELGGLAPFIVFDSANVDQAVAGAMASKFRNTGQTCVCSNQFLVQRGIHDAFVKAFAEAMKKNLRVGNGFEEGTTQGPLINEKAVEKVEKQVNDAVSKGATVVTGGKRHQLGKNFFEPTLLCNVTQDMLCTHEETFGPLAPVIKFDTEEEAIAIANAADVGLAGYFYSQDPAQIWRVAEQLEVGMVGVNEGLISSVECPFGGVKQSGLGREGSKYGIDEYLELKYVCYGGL
# experiment.description: Competitive isoTOP-ABPP in situ (fragment-treated cells)
# Assay type: cell-based
# measurement.conditions: 200 μM, insitu, ramos

smiles.notation	isoTOP-ABPP ratio P51649_C340
O=C(CCl)N1CCN(CC(=O)N2CCOCC2)CC1	1.0
O=C(CCl)NCCc1c[nH]c2ccccc12	1.3
O=C(CCl)N1CCN(S(=O)(=O)c2ccccc2F)CC1	20.0
C=CC(=O)N(Cc1cccnc1)c1cc(C(F)(F)F)cc(C(F)(F)F)c1	1.0

====

# tested.target: ACAT1 C196 (P24752) (Homo sapiens, UniProt P24752)
# Sequence (P24752 34-427): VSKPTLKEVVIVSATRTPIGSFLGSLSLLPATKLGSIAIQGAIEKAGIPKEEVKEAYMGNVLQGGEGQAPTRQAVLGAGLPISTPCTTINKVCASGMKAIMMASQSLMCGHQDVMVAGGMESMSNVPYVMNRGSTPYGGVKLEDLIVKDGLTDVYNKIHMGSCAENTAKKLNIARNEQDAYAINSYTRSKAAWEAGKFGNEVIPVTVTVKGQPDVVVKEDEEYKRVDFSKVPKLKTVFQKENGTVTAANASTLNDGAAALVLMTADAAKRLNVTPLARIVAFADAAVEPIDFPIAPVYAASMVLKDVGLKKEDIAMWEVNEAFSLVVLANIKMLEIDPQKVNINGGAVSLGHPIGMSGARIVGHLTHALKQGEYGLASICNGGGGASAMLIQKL
# experiment.description: Competitive isoTOP-ABPP, cell lysates
# Format: binding
# measurement.conditions: 500 μm in-vitro ramos
Reported isoTOP-ABPP ratio (reactivity profile), P24752_C196 is given for each of the following compounds.
recorded.endpoint: isoTOP-ABPP ratio (reactivity profile), P24752_C196

compound	reported.measurement
COc1ccccc1OCCNC(=O)CCl	1.1
CC(C)CCOCCNC(=O)CCl	1.1
O=C(CCl)N1CCN(CC(=O)N2CCOCC2)CC1	1.0
CCN(CC)c1ccc(S(N)(=O)=O)cc1NC(=O)CCl	0.8
O=C(CCl)N1CCC(C(O)(c2ccccc2)c2ccccc2)CC1	2.9
C=CC(=O)N(Cc1cccnc1)c1ccc(Oc2ccccc2)c(C(F)(F)F)c1	1.6
O=C(CCl)N1CCOCC1	0.7
O=C(/C=C/c1ccccc1)Nc1cc(C(F)(F)F)cc(C(F)(F)F)c1	1.0
N#C/C(=C\c1cc(C(F)(F)F)cc(C(F)(F)F)c1)C(N)=O	1.8
CC(Br)C(=O)Nc1cc(C(F)(F)F)cc(C(F)(F)F)c1 (centres unmarked)	1.1
O=C(CCl)NC12CC3CC(CC(C3)C1)C2	1.1

====

# tested.target: cysteines in MDA-MB-231 and Ramos cells (Homo sapiens, UniProt Q9NVC6)
# Sequence (Q9NVC6 whole entry, the tested form may be a part): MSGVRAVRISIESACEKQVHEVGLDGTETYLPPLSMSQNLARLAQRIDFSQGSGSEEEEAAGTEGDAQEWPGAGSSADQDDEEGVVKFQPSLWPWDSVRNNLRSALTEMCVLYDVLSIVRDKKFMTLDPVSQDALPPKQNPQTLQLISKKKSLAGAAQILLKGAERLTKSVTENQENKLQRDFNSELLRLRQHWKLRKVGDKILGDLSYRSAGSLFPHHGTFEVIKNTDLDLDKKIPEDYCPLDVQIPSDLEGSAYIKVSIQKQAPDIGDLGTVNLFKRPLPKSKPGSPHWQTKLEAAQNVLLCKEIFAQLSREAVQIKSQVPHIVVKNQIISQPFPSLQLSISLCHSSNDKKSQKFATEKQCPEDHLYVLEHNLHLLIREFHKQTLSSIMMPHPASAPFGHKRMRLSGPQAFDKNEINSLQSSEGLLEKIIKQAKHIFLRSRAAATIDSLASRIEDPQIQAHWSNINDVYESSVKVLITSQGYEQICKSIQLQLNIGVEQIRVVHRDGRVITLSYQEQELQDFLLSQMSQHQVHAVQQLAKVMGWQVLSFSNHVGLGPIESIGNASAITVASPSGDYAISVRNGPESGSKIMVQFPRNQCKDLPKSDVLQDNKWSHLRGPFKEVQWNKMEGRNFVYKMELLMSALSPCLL
# experiment.description: Competitive isoTOP-ABPP in situ (fragment-treated cells)
# Assay type: cell-based
# measurement.conditions: 200 μM, insitu, 231
The threshold is 1. Values of isoTOP-ABPP ratio Q9NVC6_C649 beneath it are tagged true; values meeting or exceeding it are tagged false.

compound	class.label
CC(C)CCOCCNC(=O)CCl	false
O=C(CCl)NC12CC3CC(CC(C3)C1)C2	true
Cc1ccc(C=C(C#N)C(=O)NCCN2CCOCC2)cc1	true
C=CC(=O)N(Cc1cccnc1)c1cc(C(F)(F)F)cc(C(F)(F)F)c1	true
C=CC(=O)Nc1cc(F)c(N2CCN(C(=O)OC(C)(C)C)CC2)c(F)c1	false
CC1CCc2ccccc2N1C(=O)CCl (stereo not shown)	false
O=C(CCl)N1CCN(S(=O)(=O)c2ccccc2F)CC1	false
COc1ccccc1OCCNC(=O)CCl	false
O=C(CCl)NC(=O)NC12CC3CC(CC(C3)C1)C2	false
O=C(CCl)NCCc1c[nH]c2ccccc12	false

====

isoTOP-ABPP ratio, Q15084_C190 for assorted compounds
# tested.target: UniProt:Q15084
# Sequence (Q15084 20-440): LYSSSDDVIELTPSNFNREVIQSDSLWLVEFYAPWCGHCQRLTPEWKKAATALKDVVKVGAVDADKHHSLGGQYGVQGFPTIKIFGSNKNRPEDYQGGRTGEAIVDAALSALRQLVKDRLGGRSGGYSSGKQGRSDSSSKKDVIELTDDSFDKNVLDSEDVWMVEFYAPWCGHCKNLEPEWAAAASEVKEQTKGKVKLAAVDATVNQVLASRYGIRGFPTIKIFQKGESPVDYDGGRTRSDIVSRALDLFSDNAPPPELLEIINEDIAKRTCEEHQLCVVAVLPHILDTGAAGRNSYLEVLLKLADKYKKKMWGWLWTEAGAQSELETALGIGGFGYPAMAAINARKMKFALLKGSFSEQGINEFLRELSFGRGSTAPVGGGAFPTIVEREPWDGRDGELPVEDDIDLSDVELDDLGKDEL
# experiment.description: Competitive isoTOP-ABPP, cell lysates
# Format: binding
# measurement.conditions: 500 μM, invitro, ramos
recorded.endpoint: isoTOP-ABPP ratio, Q15084_C190

smiles.notation	tested.target	recorded.endpoint	reported.measurement
O=C(CCl)NCCc1c[nH]c2ccccc12	UniProt:Q15084	isoTOP-ABPP ratio, Q15084_C190	1.3
C=CC(=O)N(c1ccccc1)c1ccc(Br)cc1	UniProt:Q15084	isoTOP-ABPP ratio, Q15084_C190	1.7
O=C(CCl)N1CCN(S(=O)(=O)c2ccccc2F)CC1	UniProt:Q15084	isoTOP-ABPP ratio, Q15084_C190	3.3
Cn1cc(S(=O)(=O)N2CCOCC2)cc1C(=O)NC(=O)CCl	UniProt:Q15084	isoTOP-ABPP ratio, Q15084_C190	20.0
O=C(CCl)NC(=O)NC12CC3CC(CC(C3)C1)C2	UniProt:Q15084	isoTOP-ABPP ratio, Q15084_C190	20.0

====

Reported isoTOP-ABPP ratio Q96CM8_C64 values are given for each entry in this list.
# tested.target: cysteines in MDA-MB-231 and Ramos cells (Homo sapiens)
# Sequence (Q96CM8 42-615): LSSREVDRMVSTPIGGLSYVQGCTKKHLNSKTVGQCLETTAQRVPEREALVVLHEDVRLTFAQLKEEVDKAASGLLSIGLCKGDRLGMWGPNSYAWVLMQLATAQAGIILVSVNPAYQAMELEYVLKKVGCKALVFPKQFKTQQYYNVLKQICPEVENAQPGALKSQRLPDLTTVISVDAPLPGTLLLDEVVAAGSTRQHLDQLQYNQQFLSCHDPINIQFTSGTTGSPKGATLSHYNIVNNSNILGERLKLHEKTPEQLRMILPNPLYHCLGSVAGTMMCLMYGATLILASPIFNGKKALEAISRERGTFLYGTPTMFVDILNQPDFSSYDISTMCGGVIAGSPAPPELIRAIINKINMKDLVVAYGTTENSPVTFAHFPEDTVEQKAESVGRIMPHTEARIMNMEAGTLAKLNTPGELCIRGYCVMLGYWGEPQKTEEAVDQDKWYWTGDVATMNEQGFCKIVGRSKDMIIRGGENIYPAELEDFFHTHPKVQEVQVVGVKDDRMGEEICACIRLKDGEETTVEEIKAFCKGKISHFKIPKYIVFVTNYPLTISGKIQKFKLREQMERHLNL
# experiment.description: Competitive isoTOP-ABPP in situ (fragment-treated cells)
# Format: cell-based
# measurement.conditions: 200 μM, insitu, 231
recorded.endpoint: isoTOP-ABPP ratio Q96CM8_C64

smiles.notation	tested.target	recorded.endpoint	reported.measurement
C=CC(=O)N(Cc1cccnc1)c1cc(C(F)(F)F)cc(C(F)(F)F)c1	cysteines in MDA-MB-231 and Ramos cells (Homo sapiens)	isoTOP-ABPP ratio Q96CM8_C64	0.8
O=C(CCl)NC12CC3CC(CC(C3)C1)C2	cysteines in MDA-MB-231 and Ramos cells (Homo sapiens)	isoTOP-ABPP ratio Q96CM8_C64	2.0
O=C(CCl)NC(=O)NC12CC3CC(CC(C3)C1)C2	cysteines in MDA-MB-231 and Ramos cells (Homo sapiens)	isoTOP-ABPP ratio Q96CM8_C64	17.9

====

Catalogue of isoTOP-ABPP ratio Q13526_C113 readings, one per entry.
# tested.target: cysteines in MDA-MB-231 and Ramos cells (Homo sapiens, UniProt Q13526)
# Sequence (Q13526 whole entry, the tested form may be a part): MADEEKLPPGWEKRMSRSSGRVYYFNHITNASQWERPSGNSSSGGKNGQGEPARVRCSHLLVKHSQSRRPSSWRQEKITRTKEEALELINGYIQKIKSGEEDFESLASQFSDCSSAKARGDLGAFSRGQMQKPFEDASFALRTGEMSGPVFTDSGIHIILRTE
# experiment.description: Competitive isoTOP-ABPP in situ (fragment-treated cells)
# Assay type: cell-based
# measurement.conditions: 200 μM, insitu, ramos

smiles.notation	tested.target	isoTOP-ABPP ratio Q13526_C113
O=C(CCl)N1CCN(CC(=O)N2CCOCC2)CC1	cysteines in MDA-MB-231 and Ramos cells (Homo sapiens, UniProt Q13526)	1.0
O=C(CCl)NCCc1c[nH]c2ccccc12	cysteines in MDA-MB-231 and Ramos cells (Homo sapiens, UniProt Q13526)	1.0
O=C(CCl)N1CCN(S(=O)(=O)c2ccccc2F)CC1	cysteines in MDA-MB-231 and Ramos cells (Homo sapiens, UniProt Q13526)	1.3
C=CC(=O)N(Cc1cccnc1)c1cc(C(F)(F)F)cc(C(F)(F)F)c1	cysteines in MDA-MB-231 and Ramos cells (Homo sapiens, UniProt Q13526)	1.1
